Molecular target: T1, ZFP SBS#544 (synthetic)
T1 chain: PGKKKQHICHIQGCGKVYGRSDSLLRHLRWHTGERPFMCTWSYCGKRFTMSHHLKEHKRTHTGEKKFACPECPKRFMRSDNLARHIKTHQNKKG
Assay: EMSA
Details: tags: MBP fusion
measured.endpoint: pKd
Please report pKd as the negative decimal logarithm of the molar concentration, giving only the number.

Any idea what its pKd is? The binder is GAGTGTGTGA (dsDNA) DNA 1: GAGTGTGTGA DNA 2: TCACACACTC
6.90

This collection of values is drawn from patent US20030068675.
